Values were extracted from patent US20070004660A1.

The following molecules are listed with their measured pIC50 values.
Biological target: isolated kinase domain of the human FLT3 receptor (a.a. 571-993) (Homo sapiens, UniProt P36888)
Construct: human FLT3 receptor (a.a. 571-993)
Sequence (P36888 571-993): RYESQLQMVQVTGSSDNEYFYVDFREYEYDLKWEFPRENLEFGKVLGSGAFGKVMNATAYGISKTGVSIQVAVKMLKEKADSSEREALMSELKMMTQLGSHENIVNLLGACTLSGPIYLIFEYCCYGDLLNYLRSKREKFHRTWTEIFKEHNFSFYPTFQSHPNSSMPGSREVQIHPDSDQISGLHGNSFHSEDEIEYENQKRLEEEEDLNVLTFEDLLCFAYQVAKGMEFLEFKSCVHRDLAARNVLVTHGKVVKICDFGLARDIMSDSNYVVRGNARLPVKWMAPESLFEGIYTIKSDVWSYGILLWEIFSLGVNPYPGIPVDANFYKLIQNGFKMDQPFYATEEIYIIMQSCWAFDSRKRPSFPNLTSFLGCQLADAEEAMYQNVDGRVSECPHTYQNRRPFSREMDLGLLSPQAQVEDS
Assay: FLT3 fluorescence polarization kinase assay
Details: 150 uM ATP; uncertainty ±10%
Source text: The FLT3 FP assay utilizes the fluorescein-labeled phosphopeptide and the anti-phosphotyrosine antibody included in the Panvera Phospho-Tyrosine Kinase Kit (Green) supplied by Invitrogen. When FLT3 phosphorylates polyGlu4Tyr, the fluorescein-labeled phosphopeptide is displaced from the anti-phosphotyrosine antibody by the phosphorylated poly Glu4Tyr, thus decreasing the FP value. […]
Just so you know, pIC50 here is -log10 of the concentration in molar units; reply with that number alone.

smiles_input=O=C1CCCN1CCCOc1ccc2c(C3CCN(C(=O)Nc4ccc(N5CCCC5)nc4)CC3)ncnc2c1 value_observed=8.70
smiles_input=COc1cc2c(C3CCN(C(=O)Nc4ccc(N5CCCC5)cc4)CC3)ncnc2cc1N1CCOCC1 value_observed=8.10
smiles_input=O=C(Nc1ccc(N2CCCC2)cc1)N1CCC(c2ncnc3cc(OC4CCOCC4)ccc23)CC1 value_observed=5.95

Now, please, on to the next molecule.
Could you share which pIC50 value was measured for O=C(Nc1ccc(N2CCCC2)cc1)N1CCC(c2ncnc3cc(N4CCOCC4)ccc23)CC1 ?
8.00
